B1: NP_006221.1 (parent)
chain: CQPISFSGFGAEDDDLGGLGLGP

Variants of: B1
Experiment: protein stability index of a GFP-peptide fusion (GPS, HEK-293T) (PSI 1-6); higher = more stable;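 also: lentivirally expressed fusion library, cells FACS-sorted into six equal-sized GFP/DsRed ratio bins, PSI computed from sequencing read fractions per bin weighted by bin number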
Settings: c terminus: native
For each of the variants below, state its protein stability index.
Numbers only.

Some solved entries appear below for comparison.
For this variant ( CQPISMSGFGAEDDDLGGLGLGP [F6M] ), measured protein stability index is 3.53

Entry CQPISFSGFGAEADDLGGLGLGP [D13A] , protein stability index reported as 2.46

// CQPISFSGFGAEDWDLGGLGLGP [D14W] : protein stability index value = 2.48

Take each entry in turn and give its protein stability index.
1. CQPISFSGFGAEDCDLGGLGLGP [D14C]
2. CQPISFSGFGAEDDDLVGLGLGP [G17V]

Data returned:
1: 2.12; 2: 1.99

Batch lookup, protein stability index per entry.
1. CQPISFSGFGAEDIDLGGLGLGP [D14I]
2. CQPISFSGFGAEDDDPGGLGLGP [L16P]
3. CQIISFSGFGAEDDDLGGLGLGP [P3I]
4. CQPISFSGFGAEDDDLGGIGLGP [L19I]
5. CQPISFSGFGAEDDDLGGLILGP [G20I]
6. CQPISFTGFGAEDDDLGGLGLGP [S7T]

Data returned:
1: 2.21; 2: 2.15; 3: 2.29; 4: 2.13; 5: 3.2; 6: 2.19

For the 2 variants below, give their protein stability index values.
1. CQPIQFSGFGAEDDDLGGLGLGP [S5Q]
2. CQPISFSGNGAEDDDLGGLGLGP [F9N]

Data returned:
1. 2.24
2. 2.87

For each of the items listed, what is its protein stability index?
1. CQPISFSGFGAEDDDLGKLGLGP [G18K]
2. CQPISFSGFGAEDDDLGGLKLGP [G20K]
3. CQPISFSGFGAEDDDSGGLGLGP [L16S]
4. CQPISFSGFGAEDDDLGQLGLGP [G18Q]
5. CQPLSFSGFGAEDDDLGGLGLGP [I4L]
6. CQPISFSGFGAEDDDCGGLGLGP [L16C]
7. CQGISFSGFGAEDDDLGGLGLGP [P3G]
8. CQPISFSGFGAEDDDLGGLGLLP [G22L]

Data returned:
[1.93, 4.31, 2.28, 2, 2.11, 2.34, 2.3, 2.46]
